- test.target: human mPGES-1 (Homo sapiens)
- Construct: made in house
- Sequence (O14684 1-152): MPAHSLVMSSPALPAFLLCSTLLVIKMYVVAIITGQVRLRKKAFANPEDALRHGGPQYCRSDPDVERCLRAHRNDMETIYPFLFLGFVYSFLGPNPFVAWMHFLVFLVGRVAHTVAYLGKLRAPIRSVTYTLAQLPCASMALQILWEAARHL
- procedure.details: in vitro inhibitory activity against human mPGES-1 (PGE2 ELISA assay)
- Format: biochemical
- condition: 10 µM, single concentration; read-out: Inhibition (%) at 10 µM
Kind request: treat 40% as inclusive, so inhibition at 10 µM at 40% or higher is criterion met, anything lower is criterion not met.

Consider the worked cases shown below.
| molecule | class.name |
| --- | --- |
| COc1cc2nc(N(C)CCCNC(=O)C3CCCO3)nc(N)c2cc1OC (stereo not shown) | criterion not met |
| C[C@]12C=CC(=O)C=C1CC[C@@H]1[C@@H]2[C@@H](O)C[C@@]2(C)[C@H]1CC[C@]2(O)C(=O)CO | criterion met |
| COCC1=C(C(=O)O)N2C(=O)[C@@H](NC(=O)/C(=N\OC)c3csc(N)n3)[C@H]2SC1 | criterion met |
| Cc1ccccc1C(=O)Nc1ccc(C(=O)N2CCCC(O)c3cc(Cl)ccc32)c(C)c1 (stereo not shown) | criterion met |
| C=C1/C(=C\C=C2/CCC[C@]3(C)[C@@H]([C@H](C)/C=C/[C@@H](O)C4CC4)CC[C@@H]23)C[C@@H](O)C[C@@H]1O | criterion met |
| CCCCC[C@H](O)/C=C/[C@H]1[C@H](O)CC(=O)[C@@H]1CCCCCCC(=O)O | criterion not met |
| CC(C)(C)C(=O)OCOP(=O)(COCCn1cnc2c(N)ncnc21)OCOC(=O)C(C)(C)C | criterion not met |
| OCCN(CCO)c1nc(N2CCCCC2)c2nc(N(CCO)CCO)nc(N3CCCCC3)c2n1 | criterion not met |
| CC1(C)S[C@@H]2[C@H](NC(=O)COc3ccccc3)C(=O)N2[C@H]1C(=O)O | criterion not met |

Next molecule, please.
**Query** Is reported inhibition at 10 µM greater than or equal to 40% here: CCOC(=O)[C@H](CCc1ccccc1)N[C@@H](C)C(=O)N1[C@H](C(=O)O)C[C@H]2CCCC[C@@H]21
**Result** criterion met

----------
- test.target: human mPGES-1 (Homo sapiens, UniProt O14684)
- Sequence (O14684 1-152): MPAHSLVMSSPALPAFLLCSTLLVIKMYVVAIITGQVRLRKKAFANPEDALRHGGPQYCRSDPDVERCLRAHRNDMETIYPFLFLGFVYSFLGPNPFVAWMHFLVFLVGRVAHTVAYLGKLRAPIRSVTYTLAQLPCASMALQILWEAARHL
In this section we review reported IC50 values for a set of compounds.
In your response, the unit should come after the numeric value.

Use the examples below as a reference point.
| compound | IC50 |
| --- | --- |
| COCC1=C(C(=O)O)N2C(=O)[C@@H](NC(=O)/C(=N\OC)c3csc(N)n3)[C@H]2SC1 | 29.7 µM |
| COc1cc(C)c(/C=C/C(C)=C/C=C/C(C)=C/C(=O)O)c(C)c1C | 3.5 µM |
| CCOC(=O)[C@H](CCc1ccccc1)N[C@@H](C)C(=O)N1[C@H](C(=O)O)C[C@H]2CCCC[C@@H]21 | 9 µM |
| Cc1ccccc1C(=O)Nc1ccc(C(=O)N2CCCC(O)c3cc(Cl)ccc32)c(C)c1 (centres unmarked) | 10.2 µM |

get_value(item= C=C1/C(=C\C=C2/CCC[C@]3(C)[C@@H]([C@H](C)/C=C/[C@@H](O)C4CC4)CC[C@@H]23)C[C@@H](O)C[C@@H]1O , readout=IC50) returns 3 µM
